Tested on: T-24
procedureText: Antiproliferative activity against human T24 cells after 96 hrs by crystal violet assay
Format: functional
experimentalContext: T-24, 96 h, read-out: ED50 (the source's name)
Task for the reader: assign each of the following compounds its reported pEC50.
Numbers only, as −log10 of the molar value.

Sample records with pEC50:
structureString: CC(=O)O[C@@H]1[C@@H](OC(C)=O)[C@H](Oc2cccc3c(O[C@@H]4OC[C@@H](OC(C)=O)[C@H](OC(C)=O)[C@H]4OC(C)=O)cccc23)OC[C@H]1OC(C)=O
pEC50: 3.77

structureString: CC(=O)Oc1ccc2cccc(O[C@@H]3OC[C@@H](OC(C)=O)[C@H](OC(C)=O)[C@H]3OC(C)=O)c2c1
pEC50: 3.77

Batch request: pEC50 per item, same order as input.
1. CC(=O)O[C@@H]1[C@@H](OC(C)=O)[C@H](Oc2ccc(O[C@@H]3OC[C@@H](OC(C)=O)[C@H](OC(C)=O)[C@H]3OC(C)=O)c3ccccc23)OC[C@H]1OC(C)=O
2. CC(=O)O[C@@H]1[C@@H](OC(C)=O)[C@H](Oc2ccc3cccc(O[C@@H]4OC[C@@H](OC(C)=O)[C@H](OC(C)=O)[C@H]4OC(C)=O)c3c2)OC[C@H]1OC(C)=O
3. CC(=O)Oc1cccc2cccc(O[C@@H]3OC[C@@H](OC(C)=O)[C@H](OC(C)=O)[C@H]3OC(C)=O)c12

[3.85, 3.96, 3.69]
